Hey, just so you know, these numbers are from PubChem BioAssay AID200.

# System: B6C3F1 mice, B16 melanoma ip, median survival T/C
# Test method notes: NCI In Vivo Anticancer Drug Screen. Data for tumor model B16 Melanoma (intraperitoneal) in B6C3F1 mice
# Cond: endpoint: median survival time; dose: 100.0 mg/kg/injection; schedule: Q01DX009 (ip); vehicle: Klucel (hydroxypropylcellulose) (HPC)
Toxic doses and inconclusive results are not listed. How the source made its calls: active means survival T/C of 150% or more; inactive means T/C below 125% in these data. Where a SMILES comes first, the peptide text is derived from it. [ ]: non-standard residue; d: D form. The star is where a group is joined. Cbz = O=C(OCc1ccccc1)*; Nva = CCC[CH](N)C(=O)O
Reply using exactly one outcome from 1 (yes) = active, 0 (no) = inactive

Past entries and their recorded results:
O=c1[nH]cc(O)c(=O)[nH]1
0 (no)
Cc1ccc(S(=O)(=O)OCOS(=O)(=O)c2ccc(C)cc2)cc1
0 (no)
C=C(C)[C@@H]1CCc2c(O)c(O)c(=O)cc(C)c2C1
0 (no)
COc1ccc2ccccc2c1C1NC(=O)c2ccccc2N1 (stereo not given)
0 (no)
CC(C)(C)Oc1ccc(CC(NC(=O)OCC2c3ccccc3-c3ccccc32)C(=O)O)cc1 (stereo not given)
0 (no)
COc1ccc2[nH]c3c(c2c1)CCNC3CC(C)CCC=C(C)C (stereo not given)
0 (no)
Cc1nn(CCO)c(C)c1N=[N+]([O-])c1c(C)nn(CCO)c1C
0 (no)
CCCC(NC(=O)OCc1ccccc1)C(=O)NC(C(=O)O)C(C)CC (stereo not given) (Cbz-[Nva]-Ile-OH; configuration not given here)
0 (no)

Could you check what this test reported for CCCC(NC(=O)OCc1ccccc1)C(=O)NC(CCSC)C(=O)O (stereo not given) (Cbz-[Nva]-Met-OH; configuration not given here) ?
0 (no)
